Assignment: determine reported remaining target (mRNA or protein) (fraction of control) for the given sequences.
target: SMAD4; conditions: ASO; note: test concentration or dose not given here
These antisense oligonucleotides have a phosphorothioate backbone; sugars and methylation of C are not fully specified.

If you can, please state the reported remaining target (mRNA or protein) (fraction of control) value of "ACGATTACTTGGTGGATG" . 0.88

If you can, please state the reported remaining target (mRNA or protein) (fraction of control) value of "TTTGATGCTCTGTCTTGG" . ≥ 1

If you can, please state the reported remaining target (mRNA or protein) (fraction of control) value of "TTCACAAAACTCATCCTG" . ≥ 1

If you can, please state the reported remaining target (mRNA or protein) (fraction of control) value of "TGACGCTGCTTTTAGTGT" . ≥ 1

If you can, please state the reported remaining target (mRNA or protein) (fraction of control) value of "TAGGTAGAGTGACGCTGC" . ≥ 1

If you can, please state the reported remaining target (mRNA or protein) (fraction of control) value of "TTGGGAAAGTTGGCAGTG" . ≥ 1

If you can, please state the reported remaining target (mRNA or protein) (fraction of control) value of "GTGTTTCTTTGATGCTCT" . ≥ 1

If you can, please state the reported remaining target (mRNA or protein) (fraction of control) value of "AGACACTATCACATTTTA" . ≥ 1

If you can, please state the reported remaining target (mRNA or protein) (fraction of control) value of "TGGATGAAAGATTACAAT" . ≥ 1

If you can, please state the reported remaining target (mRNA or protein) (fraction of control) value of "ACAGAAGAATACAACTAC" . ≥ 1

If you can, please state the reported remaining target (mRNA or protein) (fraction of control) value of "GTAGTCCACCATCCTGAT" . ≥ 1

If you can, please state the reported remaining target (mRNA or protein) (fraction of control) value of "TACAACTCGTTCGTAGTG" . ≥ 1

If you can, please state the reported remaining target (mRNA or protein) (fraction of control) value of "GAATTTCAATCCAGCAAG" . ≥ 1

If you can, please state the reported remaining target (mRNA or protein) (fraction of control) value of "CATAGGCGGGTGGTGCTG" . ≥ 1

If you can, please state the reported remaining target (mRNA or protein) (fraction of control) value of "CAATGGCTTCTGTCCTGT" . ≥ 1

If you can, please state the reported remaining target (mRNA or protein) (fraction of control) value of "ACTCTCTCCACCTTGTCT" . 0.57

If you can, please state the reported remaining target (mRNA or protein) (fraction of control) value of "AAAGCAGAAGAAAAGTGA" . ≥ 1

If you can, please state the reported remaining target (mRNA or protein) (fraction of control) value of "AACACCAATACTCAGGAG" . ≥ 1

If you can, please state the reported remaining target (mRNA or protein) (fraction of control) value of "TGAAGCCTCCCATCCAAT" . 0.9

If you can, please state the reported remaining target (mRNA or protein) (fraction of control) value of "GGCAGCAAACACATTTTC" . ≥ 1

If you can, please state the reported remaining target (mRNA or protein) (fraction of control) value of "CCTTCACTATGGCTGCCC" . 0.3

If you can, please state the reported remaining target (mRNA or protein) (fraction of control) value of "AATCCTTTCCGACCAGCC" . 0.26

If you can, please state the reported remaining target (mRNA or protein) (fraction of control) value of "CTGTATGGTAACACATTT" . ≥ 1

If you can, please state the reported remaining target (mRNA or protein) (fraction of control) value of "GTGGACAACGATGGCTGT" . ≥ 1

If you can, please state the reported remaining target (mRNA or protein) (fraction of control) value of "CAGGTGGTAGTGCTGTTA" . ≥ 1

If you can, please state the reported remaining target (mRNA or protein) (fraction of control) value of "AACATCACCTTCACCTTT" . 0.45

If you can, please state the reported remaining target (mRNA or protein) (fraction of control) value of "TCTGTCTAAGTAGTAACT" . ≥ 1

If you can, please state the reported remaining target (mRNA or protein) (fraction of control) value of "TGACAAGTTCTGAAGAGG" . ≥ 1

If you can, please state the reported remaining target (mRNA or protein) (fraction of control) value of "GAATGAAGGAAAAGAAAT" . ≥ 1

If you can, please state the reported remaining target (mRNA or protein) (fraction of control) value of "ATCCTTTGGAAACAGTGA" . ≥ 1

If you can, please state the reported remaining target (mRNA or protein) (fraction of control) value of "TTTAAGGGATTCTCAATA" . ≥ 1

If you can, please state the reported remaining target (mRNA or protein) (fraction of control) value of "CATACTTGATGGAGCATT" . ≥ 1

If you can, please state the reported remaining target (mRNA or protein) (fraction of control) value of "GACAGGCATCATTACTTG" . ≥ 1

If you can, please state the reported remaining target (mRNA or protein) (fraction of control) value of "ACCTTTCCCTATGAATGA" . 0.65

If you can, please state the reported remaining target (mRNA or protein) (fraction of control) value of "GATGACACTGACGCAAAT" . ≥ 1

If you can, please state the reported remaining target (mRNA or protein) (fraction of control) value of "CAGTAACAATAGGGCAGC" . ≥ 1

If you can, please state the reported remaining target (mRNA or protein) (fraction of control) value of "TAAAATCAGCAATACTGG" . 0.79

If you can, please state the reported remaining target (mRNA or protein) (fraction of control) value of "GTTTCTCCTAATCTTCAA" . ≥ 1

If you can, please state the reported remaining target (mRNA or protein) (fraction of control) value of "CAGTAAATCCATTCTGCT" . ≥ 1

If you can, please state the reported remaining target (mRNA or protein) (fraction of control) value of "CATACATAACAGGTGAAG" . 0.91

---

target: RHOG; conditions: ASO
These antisense oligonucleotides have a phosphorothioate backbone; sugars and methylation of C are not fully specified.
Rule: remaining target (mRNA or protein) (fraction of control) below 0.7 gives met. Equal to or above 0.7 gives not met.

Consider "AAAAGGCATTCAGGGAAC" . Does its remaining target (mRNA or protein) (fraction of control) lie strictly below 0.7? not met

Consider "ACAGCCTCGGCGAACACT" . Does its remaining target (mRNA or protein) (fraction of control) lie strictly below 0.7? not met

Consider "AGCTGGATGAACTGGTCA" . Does its remaining target (mRNA or protein) (fraction of control) lie strictly below 0.7? not met

Consider "CATAGGACGGCGGACTGG" . Does its remaining target (mRNA or protein) (fraction of control) lie strictly below 0.7? not met

Consider "GAGGGCAGAGGTTAGAGA" . Does its remaining target (mRNA or protein) (fraction of control) lie strictly below 0.7? not met

Consider "CGCACGTTCTCATAGGAC" . Does its remaining target (mRNA or protein) (fraction of control) lie strictly below 0.7? not met

Consider "GTCAGCAAATGCGTAAGG" . Does its remaining target (mRNA or protein) (fraction of control) lie strictly below 0.7? not met

Consider "TCTTCTGGACCCCTCTGG" . Does its remaining target (mRNA or protein) (fraction of control) lie strictly below 0.7? met

Consider "ACACCATCCTGTTGCAGG" . Does its remaining target (mRNA or protein) (fraction of control) lie strictly below 0.7? not met

Consider "TGTACGGAGGCGGTCATA" . Does its remaining target (mRNA or protein) (fraction of control) lie strictly below 0.7? met

Consider "GTAGCGCACAGCGTGGAT" . Does its remaining target (mRNA or protein) (fraction of control) lie strictly below 0.7? met

Consider "CAATTCCAAGAGCAGCGA" . Does its remaining target (mRNA or protein) (fraction of control) lie strictly below 0.7? not met

Consider "GGCAGTGCCTCCTCTCTC" . Does its remaining target (mRNA or protein) (fraction of control) lie strictly below 0.7? met

Consider "AAGAGGATGCAGGACCGC" . Does its remaining target (mRNA or protein) (fraction of control) lie strictly below 0.7? not met

---

target: TRADD; conditions: ASO
These antisense oligonucleotides have a phosphorothioate backbone; sugars and methylation of C are not fully specified.
Rule: remaining target (mRNA or protein) (fraction of control) below 0.8 gives 1 (yes). Equal to or above 0.8 gives 0 (no).

Consider "GCGGCGGCGGCGGCTTCA" . Does its remaining target (mRNA or protein) (fraction of control) lie strictly below 0.8? 0 (no)

Consider "TGCGGGTCGCTGCGGTGG" . Does its remaining target (mRNA or protein) (fraction of control) lie strictly below 0.8? 1 (yes)

Consider "GACCCTGGAACAGAAAAG" . Does its remaining target (mRNA or protein) (fraction of control) lie strictly below 0.8? 0 (no)

Consider "ACTTTATTATCATTGCTT" . Does its remaining target (mRNA or protein) (fraction of control) lie strictly below 0.8? 1 (yes)

Consider "GCTGCTGGGCTAGGATGC" . Does its remaining target (mRNA or protein) (fraction of control) lie strictly below 0.8? 0 (no)

Consider "TCCTCTGCCAGGCTGGTG" . Does its remaining target (mRNA or protein) (fraction of control) lie strictly below 0.8? 0 (no)

Consider "GGAACAGAAAAGTCTGGG" . Does its remaining target (mRNA or protein) (fraction of control) lie strictly below 0.8? 0 (no)

Consider "GCCCGCAGAATCGCAGCT" . Does its remaining target (mRNA or protein) (fraction of control) lie strictly below 0.8? 1 (yes)

Consider "GTCCTTCAGGCTCAGCGG" . Does its remaining target (mRNA or protein) (fraction of control) lie strictly below 0.8? 1 (yes)

Consider "GGATGGGAGAAGGTGAGG" . Does its remaining target (mRNA or protein) (fraction of control) lie strictly below 0.8? 1 (yes)

Consider "GAGGCAGAATCCCCAATG" . Does its remaining target (mRNA or protein) (fraction of control) lie strictly below 0.8? 0 (no)

Consider "GCTCGTACTCGTAGGCCA" . Does its remaining target (mRNA or protein) (fraction of control) lie strictly below 0.8? 0 (no)

Consider "GCATCCGACAGGACCACC" . Does its remaining target (mRNA or protein) (fraction of control) lie strictly below 0.8? 0 (no)

Consider "GGAGGAAGCGGCCACAGG" . Does its remaining target (mRNA or protein) (fraction of control) lie strictly below 0.8? 1 (yes)

Consider "GCAGGTCCAGCAGATAGG" . Does its remaining target (mRNA or protein) (fraction of control) lie strictly below 0.8? 0 (no)

Consider "CATTTGAGACCCACAGAG" . Does its remaining target (mRNA or protein) (fraction of control) lie strictly below 0.8? 0 (no)

Consider "GCGTAGGCATCCGACAGG" . Does its remaining target (mRNA or protein) (fraction of control) lie strictly below 0.8? 0 (no)

Sourced from the OligoGym collection
